# TEST NAME: Clearance in Beagle dog at 2 mg/kg, iv over 30 mins
# Assay type: ADME, organism-based, Canis lupus familiaris
# Parameters: dose 2 mg/kg, route intravenous
# REPORTED CONDITIONS: in vivo
EXPERIMENTAL ENDPOINT: clearance

// fetch clearance given entry `CCOP(=O)(COc1ccc(C[C@H](NC(=O)O[C@H]2CO[C@H]3OCC[C@H]32)[C@H](O)CN(CC(C)C)S(=O)(=O)c2ccc(OC)cc2)cc1)OCC` 35.5 mL/min/kg

* * *

# Tested on: Human immunodeficiency virus 1
# TEST NAME: Antiviral activity against wild type HIV1 3B infected in human MT2 cells assessed as virus-induced cytopathic effect after 5 days by XTT assay
# Format: functional, organism-based
# REPORTED CONDITIONS: Human immunodeficiency virus 1, 3B, MT2, 120 h
EXPERIMENTAL ENDPOINT: EC50 (µM)
Could you give me the number in µM? Just the number is fine.

Field: example entries. Status: answers known.
SMILES STRUCTURE	EXPERIMENTAL ENDPOINT	SCALE UNIT	ASSAY RESULT
CC(C)CN(C[C@@H](O)[C@H](Cc1ccccc1)NC(=O)O[C@H]1CCOC1)S(=O)(=O)c1ccc(N)cc1	EC50	µM	0.024
COC(=O)c1ccc(C[C@H](NC(=O)O[C@H]2CO[C@H]3OCC[C@H]32)[C@H](O)CN(CC(C)C)S(=O)(=O)c2ccc(OC)cc2)cc1	EC50	µM	0.0003

Let us examine a further case.
Report EC50 under test system Human immunodeficiency virus 1 for `CC(C)c1nc(CN(C)C(=O)N[C@H](C(=O)N[C@@H](Cc2ccccc2)C[C@H](O)[C@H](Cc2ccccc2)NC(=O)OCc2cncs2)C(C)C)cs1` . 0.0322
